target: UniProt P08581
Sequence (P08581 25-1390): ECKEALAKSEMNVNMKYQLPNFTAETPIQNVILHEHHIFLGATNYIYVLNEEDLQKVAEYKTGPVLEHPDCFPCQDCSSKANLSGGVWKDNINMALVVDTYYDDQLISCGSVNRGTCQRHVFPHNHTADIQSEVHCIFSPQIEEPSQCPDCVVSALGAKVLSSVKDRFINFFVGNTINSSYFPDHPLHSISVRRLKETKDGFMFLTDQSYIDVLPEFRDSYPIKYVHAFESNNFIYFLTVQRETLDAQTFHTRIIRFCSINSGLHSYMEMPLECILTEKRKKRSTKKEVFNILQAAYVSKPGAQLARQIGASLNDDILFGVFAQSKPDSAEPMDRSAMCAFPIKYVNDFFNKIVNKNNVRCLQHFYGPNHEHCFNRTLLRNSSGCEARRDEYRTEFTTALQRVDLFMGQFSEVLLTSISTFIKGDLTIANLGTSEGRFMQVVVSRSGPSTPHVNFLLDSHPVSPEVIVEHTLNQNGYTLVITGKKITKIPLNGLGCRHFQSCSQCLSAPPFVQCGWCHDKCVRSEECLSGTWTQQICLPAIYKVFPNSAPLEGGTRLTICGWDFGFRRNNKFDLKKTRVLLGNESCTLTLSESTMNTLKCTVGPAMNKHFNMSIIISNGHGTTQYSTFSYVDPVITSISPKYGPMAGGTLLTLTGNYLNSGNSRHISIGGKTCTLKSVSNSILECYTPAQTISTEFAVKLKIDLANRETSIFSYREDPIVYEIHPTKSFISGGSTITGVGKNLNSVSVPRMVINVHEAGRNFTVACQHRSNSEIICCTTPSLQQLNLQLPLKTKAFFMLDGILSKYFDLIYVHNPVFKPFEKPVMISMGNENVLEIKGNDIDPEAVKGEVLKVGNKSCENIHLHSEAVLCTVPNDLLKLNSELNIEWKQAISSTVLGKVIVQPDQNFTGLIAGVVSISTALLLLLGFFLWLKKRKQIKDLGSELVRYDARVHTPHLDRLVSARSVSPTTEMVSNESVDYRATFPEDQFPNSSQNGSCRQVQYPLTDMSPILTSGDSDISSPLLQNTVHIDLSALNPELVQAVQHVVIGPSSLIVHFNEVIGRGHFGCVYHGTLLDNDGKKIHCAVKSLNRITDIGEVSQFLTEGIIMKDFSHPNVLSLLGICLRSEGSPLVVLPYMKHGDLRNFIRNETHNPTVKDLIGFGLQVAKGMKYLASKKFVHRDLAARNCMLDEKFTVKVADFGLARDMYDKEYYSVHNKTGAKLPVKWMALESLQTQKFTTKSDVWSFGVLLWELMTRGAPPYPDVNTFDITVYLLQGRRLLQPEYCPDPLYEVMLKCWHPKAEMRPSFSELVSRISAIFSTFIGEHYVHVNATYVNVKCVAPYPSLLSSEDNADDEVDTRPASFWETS
Parameter: Ki. Scope: all listed entries.
Endpoint name: Ki

- Nc1ncc(-c2cnn(C3CCNCC3)c2)cc1-n1nnnc1-c1cccc(F)c1F: 100 to 1000 nM
- CN1CCOc2cc(-c3cnc(N)c(-c4nnnn4-c4cccc(F)c4F)c3)ccc21: 100 to 1000 nM
- Nc1ncc(-c2ccc(CN3CCCC3)cc2)cc1-c1nnnn1-c1c(Cl)cccc1Cl: ≤ 100 nM
- COc1c(F)cccc1-n1nnnc1-c1cc(-c2cnn(C3CCNCC3)c2)cnc1N: 100 to 1000 nM
- CC(=O)N1CCCC1c1ccc(-c2cnc(N)c(-c3nnnn3-c3cccc(F)c3F)c2)cc1 (centres unmarked): ≤ 100 nM
- Nc1ncc(-c2ccc(CN3CCCC3)cc2)cc1-n1nnnc1-c1cccc(F)c1F: 100 to 1000 nM
- CC(C)(C)NC(=O)Nc1cccc(-c2cnc(N)c(-c3nnnn3-c3cccc(F)c3F)c2)c1: ≤ 100 nM
- Nc1ncc(-c2ccc(CN3CCCC3)cc2)cc1-c1nnnn1-c1cccc(Cl)c1Cl: ≤ 100 nM
